The origin of these recorded values is patent US10508109B2.

Entries and their IC50 values follow.
Tested on: CCD-18Co
Assay: Cell-based assay, anti-proliferative activity (Cell Counting Kit-8, 72 hours)
Conditions: Homo sapiens; CCD-18Co cells, Cell Counting Kit-8, 72 hours; read-out: IC50 (μM) CCD-18Co
Description: Active candidate inhibitors against SUV39H2 were evaluated for their target-specific cytotoxicity using A549, HCT-116, HFL1, CCD-18Co and PC14. 100 micro-L of cell suspension was seeded onto 96-well microtiter plate (ViewPlate-96FTC, PerkinElmer). […] Cellular growth was determined using Cell Counting Kit-8 (DOJINDO) at 72 hours after the exposure of the candidate inhibitors. […] Accurate IC50 values were calculated as described previously.

# smiles_notation, IC50
rows = [
    ("COc1cc(OC)c(-c2cn3cc(N4CCC(N)CC4)ccc3n2)cc1Cl", "6.8 µM"),
    ("COc1cc(OC)c(-c2cn3ccc(N4CCN(CCCN(C)C)C4=O)cc3n2)cc1Cl", "6.9 µM"),
    ("COc1cc(OC)c(-c2cn3ccc(NC(=O)CCNC(=O)OC(C)(C)C)cc3n2)cc1Cl", "7.1 µM"),
    ("COc1cc(OC)c(-c2cn3ccc(N4CC[C@H](NC(=O)OC(C)(C)C)C4)nc3n2)cc1Cl", "7 µM"),
]

----------
system: PC14; test: Cell-based assay, anti-proliferative activity (Cell Counting Kit-8, 72 hours); conditions: Homo sapiens, PC-14; PC14 cells, 72 hours, Cell Counting Kit-8; read-out: IC50 (μM) PC14

# smiles_notation, study_system, IC50 [µM]
measured = [
    ("COc1cc(OC)c(-c2cn3ccc(N[C@H]4CC[C@H](Nc5ccccn5)CC4)cc3n2)cc1Cl", "PC14", 0.94),
    ("COc1cc(OC)c(-c2cn3ccc(N4CCN(Cc5ccncc5)CC4)cc3n2)cc1Cl", "PC14", 0.68),
    ("COc1cc(OC)c(-c2nc3cc(N4CCN(C(=O)OC(C)(C)C)CC4)ccn3c2Br)cc1Cl", "PC14", 0.57),
    ("CCS(=O)(=O)N1CCCN(c2ccn3cc(-c4cc(Cl)c(OC)cc4OCCCN(C)C)nc3c2)CC1", "PC14", 6.5),
]

----------
target: UniProtKB Q9H5I1; conditions: read-out: IC50 (μM) Suv 39H2 assay; enzyme assay
Entries and their IC50 values follow.

# smiles_notation, unit_name, IC50
data = [
    ("COc1cc(OCCCN(C)C)c(-c2cn3ccc(N4CCC(NS(C)(=O)=O)CC4)cc3n2)cc1Cl", "µM", 0.0211),
    ("COc1cc(OC)c(-c2cn3cc(NCCN)ccc3n2)cc1Cl", "µM", 0.0179),
    ("CCOP(=O)(CCN1CCN(c2ccn3cc(-c4cc(Cl)c(OC)cc4OC)nc3c2)CC1)OCC", "µM", 0.0064),
]

----------
target: SUV39H2 (Homo sapiens (Human), UniProt Q9H5I1); test: biochemical; type: biochemical; conditions: 3H-SAM 100 nM, H3 Histone Peptide 350 nM, room temperature 3 hours
Sequence (Q9H5I1 whole entry): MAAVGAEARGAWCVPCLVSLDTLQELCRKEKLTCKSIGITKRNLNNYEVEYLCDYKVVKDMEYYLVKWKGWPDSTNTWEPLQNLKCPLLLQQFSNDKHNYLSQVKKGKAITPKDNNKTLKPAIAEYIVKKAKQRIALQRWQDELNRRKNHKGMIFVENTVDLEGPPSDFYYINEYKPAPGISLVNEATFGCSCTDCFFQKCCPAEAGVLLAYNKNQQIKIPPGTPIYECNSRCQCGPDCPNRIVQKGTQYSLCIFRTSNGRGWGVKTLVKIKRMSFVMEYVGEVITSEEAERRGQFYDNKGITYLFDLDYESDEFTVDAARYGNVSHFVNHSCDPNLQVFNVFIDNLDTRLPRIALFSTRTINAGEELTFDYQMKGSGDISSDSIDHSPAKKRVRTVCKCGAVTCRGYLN
pIC50: −log10 of the molar value. Counter-ions that a name gives are not always drawn.
Entries and their pIC50 values follow.

# compound, pIC50
data = [
    ("COc1cc(OC)c(-c2cn3ccc(N4CCN(Cc5cncc(C#N)c5)CC4)cc3n2)cc1Cl", 7.45),
    ("COc1cc(OC)c(-c2cn3ccc(N4CC[C@H](NC(C)C5CCCCC5)C4)cc3n2)cc1Cl (some centres unmarked)", 7.32),
    ("COc1cc(OC)c(-c2cn3ccc(N4CCN(c5ccncc5F)CC4)cc3n2)cc1Cl", 7.24),
    ("COc1cc(OC)c(-c2cn3ccc(N4CCN(c5cc(N6CCCC6)ncn5)CC4)cc3n2)cc1Cl", 7.41),
    ("COc1cc(OC)c(-c2cn3ccc(N4CCN(c5ccnc(N6CCNCC6)n5)CC4)cc3n2)cc1Cl", 7.63),
    ("COc1cc(OC)c(-c2cn3cnc(N4CCN(S(=O)(=O)C5CC5)CC4)cc3n2)cc1Cl", 7.00),
    ("COc1cc(OC)c(-c2cn3ccc(N4CCN(c5ccnc(N6CCC(N)CC6)n5)CC4)cc3n2)cc1Cl", 7.77),
    ("CNc1ccnc(N2CCN(c3ccn4cc(-c5cc(Cl)c(OC)cc5OC)nc4c3)CC2)n1", 7.39),
    ("COc1cc(OC)c(-c2cn3ccc(N4CCC(CNC(=O)OC(C)(C)C)C4)cc3n2)cc1Cl (centres unmarked)", 8.11),
    ("COc1cc(OC)c(-c2cn3ccc(N4CCN(c5ccnc(NCC(C)O)n5)CC4)cc3n2)cc1Cl (centres unmarked)", 7.93),
    ("COc1cc(OC)c(-c2cn3ccc(N4CCN(c5cc(Cl)nc(N)n5)CC4)cc3n2)cc1Cl", 7.25),
    ("COc1cc(OC)c(-c2cn3ccc(N4CCN(c5ccnc(N6CCC(O)CC6)n5)CC4)cc3n2)cc1Cl", 7.67),
    ("COc1cc(OC)c(-c2cn3ccc(N4CC[C@H](NC(C)c5ccncc5)C4)cc3n2)cc1Cl (some centres unmarked) [Example 407, dihydrochloride]", 8.11),
    ("COc1cc(OC)c(-c2cn3ccc(N4CCN(c5cnc(N6CCC(N)C6)nc5)CC4)cc3n2)cc1Cl (centres unmarked) [Example 378, dihydrochloride]", 7.64),
    ("COc1cc(OC)c(-c2cn3ccc(N[C@H]4CC[C@@H](NCc5ccccc5)CC4)cc3n2)cc1Cl", 7.63),
    ("COc1cc(OC)c(-c2cn3ccc(N[C@H]4CC[C@H](NCc5ccc(C)cc5)CC4)cc3n2)cc1Cl", 7.22),
    ("COc1cc(OC)c(-c2cn3ccc(N4CCN(c5nc(N)nc(N6CCOCC6)n5)CC4)cc3n2)cc1Cl", 7.57),
    ("COc1cc(OC)c(-c2cn3ccc(N4CCN(/N=C\\c5ccncc5)CC4)cc3n2)cc1Cl", 8.08),
    ("COc1cc(OC)c(-c2cn3ccc(N4CCN(c5cnc(N6CCN(S(=O)(=O)C7CC7)CC6)nc5)CC4)cc3n2)cc1Cl [Example 369, 2,2,2-trifluoroacetate]", 7.24),
    ("COc1cc(OC)c(-c2cn3ccc(N4CCN(c5ncnc(N(C)C)n5)CC4)cc3n2)cc1Cl", 7.47),
]

----------
System: PC14
Assay: Cell-based assay, anti-proliferative activity (Cell Counting Kit-8, 72 hours)
Settings: Homo sapiens, PC-14; PC14 cells, 72 hours, Cell Counting Kit-8; read-out: IC50 (μM) PC14
Description: Active candidate inhibitors against SUV39H2 were evaluated for their target-specific cytotoxicity using A549, HCT-116, HFL1, CCD-18Co and PC14. 100 micro-L of cell suspension was seeded onto 96-well microtiter plate (ViewPlate-96FTC, PerkinElmer). […] Cellular growth was determined using Cell Counting Kit-8 (DOJINDO) at 72 hours after the exposure of the candidate inhibitors. […] Accurate IC50 values were calculated as described previously.
Structures can show the parent of a compound that is named as a salt.
Response field label takes 1 (yes) when IC50 is strictly below 1 µM and 0 (no) in all other cases.

# compound, class_name
rows = [
    ("COc1cc(OC)c(-c2cn3ccc(-c4ccc(C(=O)[C@H](C)N)cc4)cc3n2)cc1Cl [Example 274, hydrochloride]", "1 (yes)"),
    ("COc1cc(OC)c(-c2cn3ccc(N[C@H]4CC[C@H](CN5CCN(S(C)(=O)=O)CC5)CC4)cc3n2)cc1Cl", "1 (yes)"),
    ("COc1cc(OC)c(-c2cn3ccc(N4CCN(S(=O)(=O)C5CC5)C(CO)C4)cc3n2)cc1Cl (stereo not shown)", "0 (no)"),
    ("COc1cc(OC)c(-c2cn3ccc(N4CC[C@H](NCc5ccc([N+](=O)[O-])cc5)C4)cc3n2)cc1Cl", "1 (yes)"),
    ("COc1ccc(CN[C@H]2CCN(c3ccn4cc(-c5cc(Cl)c(OC)cc5OC)nc4c3)C2)cc1", "0 (no)"),
    ("COc1cc(OC)c(-c2cn3ccc(-c4ccc(C(=O)N5CCC(N)CC5)cc4)cc3n2)cc1Cl", "0 (no)"),
    ("COc1cc(OC)c(-c2cn3ccc(OC4CCN(S(=O)(=O)c5cccs5)CC4)cc3n2)cc1Cl", "1 (yes)"),
]

----------
Entries and their log10 IC50 values follow.
biological target: SUV39H2 (Homo sapiens (Human), UniProt Q9H5I1); conditions: read-out: IC50 (μM) Suv 39H2 assay; enzyme assay
recorded_metric: log10 IC50 (log10 of the value in µM)

# compound, log10 IC50
data = [
    ("COc1cc(OC)c(-c2cn3ccc(-c4ccc(C(=O)NCC(O)CN)cc4)cc3n2)cc1Cl (stereo not shown)", -1.66),
    ("COc1cc(OC)c(-c2cn3ccc(NC(=O)[C@@H]4CCCN4)cc3n2)cc1Cl", -1.27),
    ("COc1cc(OC)c(-c2cn3ccc(N4CCC(NC(C)=O)C4)cc3n2)cc1Cl (stereo not shown)", -2.36),
    ("COc1cc(OC)c(-c2cn3ccc(N4CCCN(C(=O)OC(C)(C)C)CC4)cc3n2)cc1Cl", -1.55),
    ("COc1cc(OC)c(-c2cn3ccc(N(C)CCNC(=O)OC(C)(C)C)cc3n2)cc1Cl", -1.91),
    ("COc1cc(OC)c(-c2cn3ccc(N4CCC(N(C)C)CC4)cc3n2)cc1Cl", -1.87),
    ("COc1cc(OC)c(-c2cn3ccc(N4CCN(C(=O)C5CCCC5)CC4)nc3n2)cc1Cl", -1.74),
]
